- Test system: COR-L23
- experimentSummary: relative viability (nuclei count vs DMSO), 5 days (fraction); higher = more cells survive
- settings: first compound 0.2 µM
measuredAttribute: relative viability

Request: Value lookup for relative viability; key = COCC1(CO)C(=O)C2CCN1CC2 (stereo not drawn) [PRIMA-1MET] + CC1(C)CCC(c2ccc(Cl)cc2)=C(CN2CCN(c3ccc(C(=O)NS(=O)(=O)c4ccc(N[C@H](CCN5CCOCC5)CSc5ccccc5)c(S(=O)(=O)C(F)(F)F)c4)cc3)CC2)C1 [Navitoclax] (partner 0.5 µM)
Response: 1.1

Request: Value lookup for relative viability; key = COCC1(CO)C(=O)C2CCN1CC2 (stereo not drawn) [PRIMA-1MET] + C[C@@H](Oc1cc(-c2cnn(C3CCNCC3)c2)cnc1N)c1c(Cl)ccc(F)c1Cl [Crizotinib] (partner 1 µM)
Response: 0.704

Request: Value lookup for relative viability; key = COCC1(CO)C(=O)C2CCN1CC2 (stereo not drawn) [PRIMA-1MET] + COc1cc2c(Oc3ccc(NC(=O)C4(C(=O)Nc5ccc(F)cc5)CC4)cc3F)ccnc2cc1OCCCN1CCOCC1 [Foretinib] (partner 0.25 µM)
Response: 1.23
